biological target: HCV RNA-dependent RNA polymerase (NS5B) (Hepatitis C virus genotype 1b (isolate BK) (HCV), UniProt P26663); assay: RNA-Dependent RNA HCV NS5B (polymerase) Assay and IC50 Determination; format: biochemical; conditions: purified HCV NS5B polymerase, polyA:U16 substrate, 32P-UTP incorporation; read-out: IC50
Sequence (P26663 2420-3010): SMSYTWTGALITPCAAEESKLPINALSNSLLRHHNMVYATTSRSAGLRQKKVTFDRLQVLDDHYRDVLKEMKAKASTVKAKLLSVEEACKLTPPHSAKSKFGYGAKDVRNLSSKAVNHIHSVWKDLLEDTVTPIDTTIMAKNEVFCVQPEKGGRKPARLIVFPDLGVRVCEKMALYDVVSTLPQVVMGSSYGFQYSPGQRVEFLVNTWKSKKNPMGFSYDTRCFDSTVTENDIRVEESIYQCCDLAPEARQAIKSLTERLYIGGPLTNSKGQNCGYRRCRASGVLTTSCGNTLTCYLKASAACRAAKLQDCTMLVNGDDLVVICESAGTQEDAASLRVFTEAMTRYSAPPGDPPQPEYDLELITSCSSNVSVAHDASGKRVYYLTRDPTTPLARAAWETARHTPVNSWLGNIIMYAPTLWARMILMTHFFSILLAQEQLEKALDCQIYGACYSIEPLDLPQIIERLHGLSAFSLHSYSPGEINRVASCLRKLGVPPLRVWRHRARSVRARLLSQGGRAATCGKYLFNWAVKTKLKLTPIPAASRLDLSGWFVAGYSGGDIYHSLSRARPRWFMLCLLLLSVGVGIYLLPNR
pIC50: −log10 of the molar value.
Exercise: for every item that follows, state its recorded pIC50.

Entry "CNC(=O)c1c(-c2ccc(F)cc2)oc2cc(N(CCOCCOCCOCCC(=O)O)S(C)(=O)=O)c(C3CC3)cc12" ; pIC50 = 6.00 to 7.00

Entry "CNC(=O)c1c(-c2ccc(F)cc2)oc2cc(N(CCOCCOCc3ccc(C(=O)OCc4ccccc4)cc3)S(C)(=O)=O)c(C3CC3)cc12" ; pIC50 = 6.00 to 7.00

Entry "CNC(=O)c1c(-c2ccc(F)cc2)oc2cc(N(CCCCCOCCCCC(=O)OC(C)(C)C)S(C)(=O)=O)c(C3CC3)cc12" ; pIC50 = < 6.00

Entry "CNC(=O)c1c(-c2ccc(F)cc2)oc2cc(N(CCOCCOCCCc3cccc(C(=O)O)c3)S(C)(=O)=O)c(C3CC3)cc12" ; pIC50 = > 7.00

Entry "CNC(=O)c1c(-c2ccc(F)cc2)oc2cc(N(CCCCCCCc3ccc(C(=O)OC)cc3)S(C)(=O)=O)c(C3CC3)cc12" ; pIC50 = 6.00 to 7.00

Entry "CCOC(=O)c1ccc(COCCOCCN(c2cc3oc(-c4ccc(F)cc4)c(C(=O)NC)c3cc2C2CC2)S(C)(=O)=O)c2ccccc12" ; pIC50 = 6.00 to 7.00

Entry "CNC(=O)c1c(-c2ccc(F)cc2)oc2cc(N(CCOCCOCCOCCOCCOCCOCc3cccc(C(C)=O)c3)S(C)(=O)=O)c(C3CC3)cc12" ; pIC50 = < 6.00

Entry "CNC(=O)c1c(-c2ccc(F)cc2)oc2cc(N(CCOCCOCCOC3(C(=O)O)CCCC3)S(C)(=O)=O)c(C3CC3)cc12" ; pIC50 = > 7.00

Entry "CNC(=O)c1c(-c2ccc(F)cc2)oc2cc(N(CCOCCOCCc3ccccc3C(=O)OC)S(C)(=O)=O)c(C3CC3)cc12" ; pIC50 = 6.00 to 7.00

Entry "CNC(=O)c1c(-c2ccc(F)cc2)oc2cc(N(CCOCCOCCOC(C)(C)C(=O)OC(C)(C)C)S(C)(=O)=O)c(C3CC3)cc12" ; pIC50 = < 6.00

Entry CNC(=O)c1c(-c2ccc(F)cc2)oc2cc(N(CCOCCOCCOCCOCCOCCOCc3ccc(C(=O)/C=C(\O)C(=O)O)cc3)S(C)(=O)=O)c(C3CC3)cc12 [Compound 02-10J] ; pIC50 = < 6.00

Entry "CNC(=O)c1c(-c2ccc(F)cc2)oc2cc(N(CCOCCOCCOCc3cccc(C(C)=O)c3)S(C)(=O)=O)c(C3CC3)cc12" ; pIC50 = < 6.00
